- Test system: J774A.1 (Mouse BALB/c monocyte macrophage cell line) cells
- methodNotes: LPS-induced TNF-α secretion inhibition in J774A.1 cells
- Assay type: cell-based
- details: J774.A1, 1 μM compound, graded compared to taurodeoxycholic acid (positive control), read-out: TNF-α production inhibition grade
outcomeMeasure: inhibition at 1 µM

Examples with their reported inhibition at 1 µM follow.
1. C[C@H](CS(=O)(=O)O)NC(=O)CC[C@@H](C)[C@H]1CC[C@H]2[C@@H]3[C@H](O)C[C@@H]4C[C@H](O)CC[C@]4(C)[C@H]3C[C@H](O)[C@]12C = < 20%
2. C[C@H](CCC(=O)N[C@H](Cc1ccccc1)CS(=O)(=O)O)[C@H]1CC[C@H]2[C@@H]3[C@H](O)C[C@@H]4C[C@H](O)CC[C@]4(C)[C@H]3C[C@H](O)[C@]12C = < 20%
3. C[C@H](CCC(=O)N(CCN(C)C)CCS(=O)(=O)O)[C@H]1CC[C@H]2[C@@H]3CC[C@@H]4C[C@H](O)CC[C@]4(C)[C@H]3CC[C@]12C = > 100%
4. C[C@H](CCC(=O)N1CC(S(=O)(=O)O)C1)[C@H]1CC[C@H]2[C@@H]3CC[C@@H]4CC(=O)CC[C@]4(C)[C@H]3CC[C@]12C = < 20%

Proceeding to the next molecule to report its inhibition at 1 µM.
Provide value of inhibition at 1 µM for this record tested with J774A.1 (Mouse BALB/c monocyte macrophage cell line) cells: `C[C@H](CCC(=O)NC[C@@H](C)S(=O)(=O)O)[C@H]1CC[C@H]2[C@@H]3CC[C@@H]4C[C@H](O)CC[C@]4(C)[C@H]3C[C@H](O)[C@]12C`
20 to 50%
